- Tested on: UACC-62
- testName: NCI-60 SRB screen;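 further: half-maximal inhibitory concentration read as cell viability unlike GI50 net growth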
- Assay type: cell-based, human
- conditionDescription: Homo sapiens; UACC-62; five dose
attributeMeasured: IC50 (nM)
One number for each entry, in nM.

Query (compound): N#CC1C(=O)NC(c2ccccc2[N+](=O)[O-])c2sc3c(F)cccc3c21 (stereo not shown) ; field requested: IC50
1780

* * *

- Tested on: MDA-MB-435
- testName: NCI-60 SRB screen
- Type: cell-based
- conditionDescription: Homo sapiens, MDA-MB-435, read-out: Growth inhibition (%)
attributeMeasured: inhibition at 10 µM (%)
One number for each entry, in %.

compound	endpointUnit	inhibition at 10 µM
N#CC1C(=O)NC(c2ccccc2[N+](=O)[O-])c2sc3c(F)cccc3c21 (centres unmarked)	%	-1.7

Hey, can you go through the list below and give me inhibition at 10 µM for every item?
1. O=C1NC(c2cccc([N+](=O)[O-])c2)c2sc3c(F)cccc3c2C1Cl (centres unmarked)
2. O=[N+]([O-])c1cccc(C2NC(N3CCOCC3)=C(Cl)c3c2sc2c(F)cccc32)c1 (centres unmarked)
3. O=[N+]([O-])c1cccc(C2NC(N3CCCCC3)=C(Cl)c3c2sc2c(F)cccc32)c1 (centres unmarked)
4. O=C1NC(c2cccc([N+](=O)[O-])c2)c2sc3c(F)cccc3c2C1N1CCOCC1 (centres unmarked)
5. COc1ccc(C2NC(=O)C(Cl)c3c2sc2c(F)cccc32)cc1 (centres unmarked)
6. COc1ccc(C=C2Sc3c(F)cccc3C2=O)c(OC)c1
7. CCN1CCN(C2C(=O)NC(c3cccc([N+](=O)[O-])c3)c3sc4c(F)cccc4c32)CC1 (centres unmarked)
8. CCN1CCN(C2=C(Cl)c3c(sc4c(F)cccc34)C(c3cccc([N+](=O)[O-])c3)N2)CC1 (centres unmarked)

-7.63
-2.51
2
-9.63
33.7
-0.27
-2.64
-6.27

Hey, can you go through the list below and give me inhibition at 10 µM for every item?
1. N#CC1=C(N2CCOCC2)NC(c2cccc([N+](=O)[O-])c2)c2sc3c(F)cccc3c21 (centres unmarked)
2. COc1ccc(C2NC(=O)C(C#N)c3c2sc2c(F)cccc32)cc1 (centres unmarked)

1. -7.7
2. 109
